Target: Tyrosine-protein phosphatase non-receptor type 2 (Homo sapiens, UniProt P17706)
Sequence (P17706 whole entry): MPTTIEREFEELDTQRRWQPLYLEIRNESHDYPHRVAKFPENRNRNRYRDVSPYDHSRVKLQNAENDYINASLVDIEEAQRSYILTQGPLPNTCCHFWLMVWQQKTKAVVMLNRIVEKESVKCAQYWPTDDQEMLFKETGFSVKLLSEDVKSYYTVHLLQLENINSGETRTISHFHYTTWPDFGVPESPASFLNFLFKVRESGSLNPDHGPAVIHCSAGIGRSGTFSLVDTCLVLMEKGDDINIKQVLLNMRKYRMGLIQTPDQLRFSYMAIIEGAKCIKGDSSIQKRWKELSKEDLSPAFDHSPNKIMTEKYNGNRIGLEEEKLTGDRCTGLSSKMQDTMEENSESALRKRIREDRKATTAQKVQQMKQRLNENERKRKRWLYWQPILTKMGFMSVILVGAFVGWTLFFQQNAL
Experiment: Inhibition of TC-PTP
observed.property: IC50 (µM)

Check out these entries, answers already filled in.
cpd.smiles: O=C(O)c1cc(/C=C/c2ccccc2)cc(-c2ccccc2)c1O
IC50 / µM: 173
--
cpd.smiles: O=C(O)c1cc(/C=C/c2ccccc2)cc(Br)c1O
IC50 / µM: 173

A: O=C(O)c1cc(/C=C/c2ccccc2)ccc1O
B: O=C(O)c1cc(/C=C/c2ccc(/C=C/c3cc(C(=O)O)c(O)c(-c4ccco4)c3)cc2)cc(-c2ccco2)c1O
C: COc1cc(/C=C/c2cc(Br)c(O)c(C(=O)O)c2)ccc1/C=C/c1cc(Br)c(O)c(C(=O)O)c1
// query Sort by IC50, descending. Output the labels ranked as instructed.
// result A, C, B
(A: 234 µM, C: 32 µM, B: 8 µM)

====

pIC50: −log10 of the molar value.
A short record of pIC50 observed with Tyrosine-protein phosphatase non-receptor type 1 (Homo sapiens) follows.
Sequence (P18031 whole entry): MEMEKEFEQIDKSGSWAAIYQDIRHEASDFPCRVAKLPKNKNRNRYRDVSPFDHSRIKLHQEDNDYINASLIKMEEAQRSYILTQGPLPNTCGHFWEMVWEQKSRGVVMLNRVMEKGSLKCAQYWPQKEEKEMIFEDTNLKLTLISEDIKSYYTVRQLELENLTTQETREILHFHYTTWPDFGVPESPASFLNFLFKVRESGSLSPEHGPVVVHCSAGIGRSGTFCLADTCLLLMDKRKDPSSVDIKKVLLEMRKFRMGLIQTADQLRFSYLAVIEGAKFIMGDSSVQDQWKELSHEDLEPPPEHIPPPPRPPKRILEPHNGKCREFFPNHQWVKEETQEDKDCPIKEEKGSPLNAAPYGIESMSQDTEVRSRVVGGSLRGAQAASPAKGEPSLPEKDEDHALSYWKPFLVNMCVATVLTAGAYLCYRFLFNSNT
observed.property: pIC50

1: O=C(O)c1ccc(/C=C/c2cc(Br)c(O)c(C(=O)O)c2)cc1O
2: O=C(O)c1cc(/C=C/c2cc(C(=O)O)c(O)c(-c3ccccc3)c2)ccc1O
3: O=C(O)c1cc(/C=C/c2ccc(/C=C/c3cc(C(=O)O)c(O)c(-c4ccco4)c3)cc2)cc(-c2ccco2)c1O
// query Task field, ranking: reported pIC50, descending order. Please reply with the labels ordered as requested. Many thanks.
// result 3, 1, 2
(3: 6.28, 1: 4.19, 2: 3.90)

====

biological target: Tyrosine-protein phosphatase non-receptor type 6 (Homo sapiens)
Sequence (P29350 whole entry): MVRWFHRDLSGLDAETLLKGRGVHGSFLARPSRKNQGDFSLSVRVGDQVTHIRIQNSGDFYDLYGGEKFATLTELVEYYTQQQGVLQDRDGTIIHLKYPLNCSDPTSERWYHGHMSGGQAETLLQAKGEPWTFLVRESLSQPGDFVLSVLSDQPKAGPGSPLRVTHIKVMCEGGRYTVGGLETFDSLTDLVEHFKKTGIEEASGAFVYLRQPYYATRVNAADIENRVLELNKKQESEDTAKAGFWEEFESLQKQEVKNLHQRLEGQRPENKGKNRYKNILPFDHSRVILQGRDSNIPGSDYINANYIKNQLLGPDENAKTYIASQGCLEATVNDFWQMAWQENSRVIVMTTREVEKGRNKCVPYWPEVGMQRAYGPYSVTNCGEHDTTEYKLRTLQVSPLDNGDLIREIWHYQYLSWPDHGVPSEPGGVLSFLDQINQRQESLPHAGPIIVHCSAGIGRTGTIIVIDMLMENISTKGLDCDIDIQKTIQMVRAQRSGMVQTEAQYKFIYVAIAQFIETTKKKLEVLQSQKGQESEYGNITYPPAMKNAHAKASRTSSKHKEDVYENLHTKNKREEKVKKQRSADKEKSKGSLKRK
observed.property: IC50 (µM)
Give your result in µM as a bare value.

Entry "O=C(O)c1cc(/C=C/c2ccc(/C=C/c3cc(Br)c(O)c(C(=O)O)c3)cc2)cc(Br)c1O" , tested on Tyrosine-protein phosphatase non-receptor type 6 (Homo sapiens), has a reported IC50 of 15
